Listed next: entries and their corresponding 2-AG accumulation, % of vehicle control at 1 µM.
target: MGL (Rattus norvegicus); construct: one g rat brain was homogenized using a Polytron homogenizer; from tissue; host or cells: rat brain homogenate; experiment: 2-AG accumulation assay in rat brain homogenate; assay type: biochemical; settings: rat brain homogenate; compound 1 μM; 2-AG accumulation as percent of vehicle; read-out: Rat Brain 2AG % VehCntrl (%) @ 1 μM
Sequence (Q8R431 whole entry): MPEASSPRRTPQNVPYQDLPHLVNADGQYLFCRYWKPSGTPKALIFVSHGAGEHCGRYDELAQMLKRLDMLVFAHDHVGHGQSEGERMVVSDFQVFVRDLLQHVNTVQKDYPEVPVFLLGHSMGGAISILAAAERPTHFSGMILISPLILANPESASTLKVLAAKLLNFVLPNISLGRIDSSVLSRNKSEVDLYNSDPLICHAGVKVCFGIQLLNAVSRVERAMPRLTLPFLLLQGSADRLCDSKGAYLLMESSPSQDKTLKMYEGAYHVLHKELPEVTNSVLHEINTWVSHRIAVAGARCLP
Assay Endpoint: 2-AG accumulation, % of vehicle control at 1 µM (%)

# Molecule, Unit Name, Recorded Result
rows = [
    ("O=C(c1ccc(Oc2cccc(Cl)c2)c(F)c1)N1CC(N2CCN(C(=O)c3nccs3)CC2)C1 [Cpd 875]", "%", 499),
    ("Cc1cn(-c2ccc(F)cc2)c2ccc(C(=O)N3CC(N4CCN(C(=O)c5nccs5)CC4)C3)cc12 [Cpd 1088]", "%", 760),
    ("O=C(c1nccs1)N1CCN(C2CN(C(=O)c3cccc(-c4ccccc4)c3F)C2)CC1 [Cpd 1172]", "%", 931),
    ("Cc1cc(C(=O)N2CC(N3CCN(C(=O)c4nccs4)CC3)C2)sc1-c1cccc(F)c1 [Cpd 1065]", "%", 531),
    ("O=C(c1nccs1)N1CCN(C2CN(C(=O)c3cc(-c4ccccc4)ccc3Cl)C2)CC1 [Cpd 1200]", "%", 231),
    ("Cc1ccc(-c2nnc(-c3ccc(C(=O)N4CC(N5CCN(C(=O)c6nccs6)CC5)C4)cc3)o2)cc1 [Cpd 1156]", "%", 681),
    ("Cc1c(C(=O)N2CC(N3CCN(C(=O)c4ccccc4)CC3)C2)sc2ccc(C(F)(F)F)cc12 [Cpd 504]", "%", 178),
    ("CCCc1ccc(C(=O)N2CC(N3CCN(C(=O)c4nccs4)CC3)C2)cc1 [Cpd 655]", "%", 359),
    ("O=C(c1ccccc1)N1CCN(C2CN(C(=O)c3ccc(Oc4cccc(C(F)(F)F)c4)cc3)C2)CC1 [Cpd 419]", "%", 109),
    ("O=C(c1ccccc1)N1CCN(C2CN(C(=O)c3ccc(Oc4ncc(C(F)(F)F)cc4Cl)cc3)C2)CC1 [Cpd 507]", "%", 190),
    ("O=C(c1ccc(Oc2cccc(C(F)(F)F)c2)nc1)N1CC(N2CCN(C(=O)c3nccs3)CC2)C1 [Cpd 660]", "%", 410),
    ("O=C(c1ccc(N2CCCCCC2)cc1)N1CC(N2CCN(C(=O)c3nccs3)CC2)C1 [Cpd 888]", "%", 940),
    ("O=C(c1ccc(Oc2ccc(Br)cn2)cc1)N1CC(N2CCN(C(=O)c3nccs3)CC2)C1 [Cpd 877]", "%", 475),
    ("O=C(c1nccs1)N1CCN(C2CN(C(=O)C3CCC(c4ccc(Cl)cc4)CC3)C2)CC1 (stereo not shown) [Cpd 637]", "%", 272),
    ("O=C(c1ccc2c(ccn2-c2ccc(C(F)(F)F)nc2)c1)N1CC(N2CCN(C(=O)c3nccs3)CC2)C1 [Cpd 1312]", "%", 963),
    ("O=C(c1cscn1)N1CCN(C2CN(C(=O)c3cc4cccc(C(F)(F)F)c4s3)C2)CC1 [Cpd 332]", "%", 182),
    ("O=C(c1nccs1)N1CCN(C2CN(C(=O)c3sc4cc(-c5ccccc5)ccc4c3C(F)(F)F)C2)CC1 [Cpd 1095]", "%", 484),
    ("O=C(c1ccc(S(=O)(=O)c2cccc(Cl)c2)cc1)N1CC(N2CCN(C(=O)c3nccs3)CC2)C1 [Cpd 876]", "%", 363),
    ("O=C(c1cscn1)N1CCN(C2CN(C(=O)c3sc4c(C(F)(F)F)c(F)ccc4c3Cl)C2)CC1 [Cpd 697]", "%", 431),
    ("Cc1cn(-c2ccc(F)c(F)c2)c2ccc(C(=O)N3CCN(C4CN(C(=O)c5nccs5)C4)CC3)cc12 [Cpd 1134]", "%", 774),
    ("O=C(c1ccc2c(ccn2-c2ccc(F)cc2F)c1)N1CC(N2CCN(C(=O)c3nccs3)CC2)C1 [Cpd 1364]", "%", 944),
    ("O=C(c1ccccc1)N1CCN(C2CN(C(=O)c3ccc(Cc4ccc(C(F)(F)F)cc4)cc3)C2)CC1 [Cpd 771]", "%", 465),
    ("O=C(c1ccc(OCc2cccc(Br)n2)cc1)N1CC(N2CCN(C(=O)c3cscn3)CC2)C1 [Cpd 987]", "%", 320),
    ("O=C(c1ccc2c(ccn2-c2cc(F)c(F)c(F)c2)c1)N1CC(N2CCN(C(=O)c3cscn3)CC2)C1 [Cpd 1055]", "%", 701),
    ("O=C(c1nn(-c2ccc(Cl)cc2Cl)c2c1CSC/C2=C\\c1ccc(F)cc1)N1CC(N2CCN(C(=O)C(F)(F)F)CC2)C1 [Cpd 1022]", "%", 189),
    ("Cc1cn(-c2ccccc2)c2ccc(C(=O)N3CC(N4CCN(C(=O)c5cscn5)CC4)C3)cc12 [Cpd 1152]", "%", 394),
    ("O=C(c1ccc(-c2cccc(C(F)(F)F)c2)cc1)N1CCN(C2CN(C(=O)c3cscn3)C2)CC1 [Cpd 1067]", "%", 408),
    ("Cc1c(C(=O)N2CC(N3CCN(C(=O)c4ccc[nH]4)CC3)C2)sc2cc(C(F)(F)F)ccc12 [Cpd 657]", "%", 581),
]
